- METHOD_NOTES: The drug is tested on WLS-240 corresponding to human gut metagenome with ENA study accession number: PRJEB37062 and ENA sample accession number: ERS12561773 for biotransformation under anaerobic condition. The drug concentrations were measured over 9 timepoints collected between 0 and 24 hours of incubation by liquid-chromatography-coupled mass spectrometry (LC–MS); note: call rule not given here
- CONDITION_SET: 2 µM
TEST_READOUT: Bacterial Biotransformation

molecule="CCN(CC)CCNC(=O)c1ccc(NC(C)=O)cc1 [ACECAINIDE]" reported="Compound metabolized"
molecule="CC(C)(C)NCC(O)COc1cccc2c1CC(O)C(O)C2 (centres undefined) [NADOLOL]" reported="Compound metabolized"
molecule="CC(C)[C@H]1CC[C@H](C(=O)N[C@H](Cc2ccccc2)C(=O)O)CC1 [NATEGLINIDE]" reported="Compound metabolized"
molecule="CC(=O)O[C@H]1C(=O)[C@@]2(C)[C@H]([C@H](OC(=O)c3ccccc3)[C@]3(O)C[C@H](OC(=O)[C@H](O)[C@@H](NC(=O)c4ccccc4)c4ccccc4)C(C)=C1C3(C)C)[C@]1(OC(C)=O)CO[C@@H]1C[C@@H]2O [PACLITAXEL]" reported="Compound NOT metabolized"
molecule="CCN(CC)CCNC(=O)c1cc(S(C)(=O)=O)ccc1OC [TIAPRIDE]" reported="Compound metabolized"
molecule="CC(=O)CCCCn1c(=O)c2c(ncn2C)n(C)c1=O [PENTOXIFYLLINE]" reported="Compound metabolized"
molecule="CN1CCN(C2=Nc3ccccc3Oc3ccc(Cl)cc32)CC1.O=C(O)CCC(=O)O [LOXAPINE SUCCINATE]" reported="Compound NOT metabolized"
molecule="CC(C)c1c(CN(C)C(C)Cc2ccccc2)n(C)n(-c2ccccc2)c1=O (centres undefined) [FAMPROFAZONE]" reported="Compound metabolized"
molecule="COc1cc(NC(C)CCCN)c2ncccc2c1.O=P(O)(O)O.O=P(O)(O)O (centres undefined) [PRIMAQUINE PHOSPHATE]" reported="Compound metabolized"
molecule="CC12CC3CC(C)(C1)CC(N)(C3)C2 [MEMANTINE]" reported="Compound NOT metabolized"
molecule="COc1cc(C(=O)NCc2ccc(OCCN(C)C)cc2)cc(OC)c1OC [TRIMETHOBENZAMIDE]" reported="Compound NOT metabolized"
molecule="CCOc1ccccc1OCCN[C@H](C)Cc1ccc(OC)c(S(N)(=O)=O)c1.Cl [TAMSULOSIN HYDROCHLORIDE]" reported="Compound NOT metabolized"
molecule="COc1ccc(CN2CCNCC2)c(OC)c1OC.Cl.Cl [TRIMETAZIDINE DIHYDROCHLORIDE]" reported="Compound NOT metabolized"
molecule="CC(C)(C)N.CCC[C@H](N[C@@H](C)C(=O)N1[C@H](C(=O)O)C[C@@H]2CCCC[C@@H]21)C(=O)OCC [PERINDOPRIL ERBUMINE]" reported="Compound metabolized"
molecule="CN(CCOc1ccc(CC2SC(=O)NC2=O)cc1)c1ccccn1.O=C(O)/C=C\\C(=O)O (centres undefined) [ROSIGLITAZONE MALEATE]" reported="Compound metabolized"
molecule="O=C1CC2(CCCC2)CC(=O)N1CCCCN1CCN(c2ncccn2)CC1 [BUSPIRONE]" reported="Compound metabolized"
molecule="COc1ccc2c(c1)c(CC(=O)O)c(C)n2C(=O)c1ccc(Cl)cc1 [INDOMETHACIN]" reported="Compound metabolized"
molecule="CCOC(=O)C1=C(C)NC(C)=C(C(=O)OC)C1c1cccc([N+](=O)[O-])c1 (centres undefined) [NITRENDIPINE]" reported="Compound metabolized"
molecule="O=C1CN2Cc3c(ccc(Cl)c3Cl)N=C2N1 [ANAGRELIDE]" reported="Compound metabolized"
molecule="CCOc1ccc2nc(S(N)(=O)=O)sc2c1 [ETHOXZOLAMIDE]" reported="Compound NOT metabolized"
molecule="Clc1cccc(Cl)c1N=C1NCCN1 [CLONIDINE]" reported="Compound metabolized"
molecule="CC1=C(CC(=O)O)c2cc(F)ccc2/C1=C\\c1ccc([S+](C)[O-])cc1 (centres undefined)" reported="Compound metabolized"
molecule="c1ccc2[nH]c(-c3cscn3)nc2c1 [THIABENDAZOLE]" reported="Compound metabolized"
molecule="CN(C)CCc1c[nH]c2ccc(CS(=O)(=O)N3CCCC3)cc12 [ALMOTRIPTAN]" reported="Compound metabolized"
molecule="CN1[C@@H]2CC[C@H]1C[C@@H](OC(=O)[C@H](CO)c1ccccc1)C2 [HYOSCYAMINE]" reported="Compound metabolized"
molecule="C[C@@H](c1ncncc1F)[C@](O)(Cn1cncn1)c1ccc(F)cc1F [VORICONAZOLE]" reported="Compound metabolized"
molecule="CNCC[C@H](Oc1cccc2ccccc12)c1cccs1 [DULOXETINE]" reported="Compound NOT metabolized"
molecule="CC[C@@]1(O)C(=O)OCc2c1cc1n(c2=O)Cc2cc3c(CN(C)C)c(O)ccc3nc2-1 [TOPOTECAN]" reported="Compound NOT metabolized"
molecule=CCOC(=O)[C@H](CCc1ccccc1)N[C@@H](C)C(=O)N1Cc2ccccc2C[C@H]1C(=O)O reported="Compound metabolized"
molecule="COc1ccc(C(CN(C)C)C2(O)CCCCC2)cc1 (centres undefined) [VENLAFAXINE]" reported="Compound metabolized"
molecule="CCS(=O)(=O)CCn1c([N+](=O)[O-])cnc1C [TINIDAZOLE]" reported="Compound metabolized"
molecule="Cc1nc(Nc2ncc(C(=O)Nc3c(C)cccc3Cl)s2)cc(N2CCN(CCO)CC2)n1 [DASATINIB ANHYDROUS]" reported="Compound metabolized"
molecule="CC(=O)OCC(=O)[C@@]1(OC(C)=O)[C@@H](C)C[C@H]2[C@@H]3C[C@H](F)C4=CC(=O)C=C[C@]4(C)[C@@]3(F)[C@@H](O)C[C@@]21C [DIFLORASONE DIACETATE]" reported="Compound metabolized"
molecule="CC(=O)Nc1ccc(OC(C)=O)cc1 [DIACETAMATE]" reported="Compound metabolized"
